reporter increase for assorted compounds
- measurement description: Bmi1 luciferase reporter increase in mESCs, primary screen, esBAF inhibitor project, mouse ES cells, Bmi1 luciferase knock-in, single point (AID 602393);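 note: 0% = median of the plate's neutral control wells and 100% = double that signal; a rise in the Bmi1 reporter signal indicates esBAF inhibition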
- cond: 24 h, at 12.5 µM, stronger effect = higher value, 100% = twice the neutral-well signal
The campaign covered roughly 350,000 compounds. About 7,000 (2%) were called active. For the sample, actives were picked, then their nearest neighbours and some compounds at random.
observation type: reporter increase (%)

>>> recorded_result("C=CCSc1nnc(N2C(=O)C(O)=C(C(=O)c3ccco3)C2c2ccc(F)cc2)s1 (configuration not stated)")
10.6
>>> recorded_result("COc1ccc2nc(N3C(=O)C(O)=C(C(=O)c4ccco4)C3c3ccco3)sc2c1 (configuration not stated)")
-10.8
>>> recorded_result("O=C(CC1CC1)N1CC[C@@H]2[C@@H](CO)Nc3ccc(-c4ccccc4)cc3[C@@H]21")
-5.1
>>> recorded_result("C[C@@H]1CN([C@@H](C)CO)C(=O)c2cc(NS(=O)(=O)c3ccccc3)ccc2O[C@@H](C)CCCCO[C@H]1CN(C)S(=O)(=O)c1cccs1")
-5.79
>>> recorded_result("c1ccc(CCc2ccccn2)cc1")
16.6
>>> recorded_result("O=C(Cc1c(F)cccc1Cl)N1CCN(C(=O)c2ccco2)CC1")
3.68
>>> recorded_result("CO[C@H]1CN(C)C(=O)c2cc(NC(=O)c3cc(C)on3)ccc2OC[C@@H](C)N(C(C)=O)C[C@H]1C")
-1.52
>>> recorded_result("Cc1ccc(S(=O)(=O)Nc2ccc3c(c2)C(=O)N([C@H](C)CO)C[C@@H](C)[C@H](CN(C)C(=O)Nc2ccc(C(F)(F)F)cc2)OCCCC[C@H](C)O3)cc1")
-0.527
>>> recorded_result("COc1ccc(S(=O)(=O)N(C)C[C@@H]2Oc3ncc(C#Cc4ccc(F)cc4)cc3C(=O)N([C@H](C)CO)C[C@@H]2C)cc1")
3.53
>>> recorded_result("FC(F)(F)c1ccccc1Cc1c(-c2ccccc2)nc2c3ccccc3ccn12")
3.35
>>> recorded_result("Oc1cccc(CCc2ccccn2)c1")
45.8
>>> recorded_result("COc1cccc(S(=O)(=O)Nc2ccc3c(c2)[C@@H]2C[C@@H](CC(=O)NC4CCCCC4)O[C@H](CO)[C@@H]2O3)c1")
9.31
>>> recorded_result("Cc1ccc(Cc2c(-c3ccccc3)nc3ccc(Cl)cn23)cc1")
21
>>> recorded_result("COc1ccc(C#Cc2cnc3c(c2)C(=O)N([C@H](C)CO)C[C@@H](C)[C@H](CN(C)C(=O)Nc2cccc(OC)c2)O3)cc1")
4.12
>>> recorded_result("Cc1ccc(Cc2c(-c3ccco3)nc3ccc(Cl)cn23)cc1")
-7.76
>>> recorded_result("Cc1ccc(Nc2ncnc3c2cnn3C)c(C)c1")
-6
>>> recorded_result("O=C(CNC(=O)c1cc2c(s1)CCC2)Nc1ccccc1Br")
30.7
>>> recorded_result("Cc1ccc(OCC(=O)Nc2ccc(N3CCN(C(=O)c4ccco4)CC3)cc2)c(C)c1")
0.555
>>> recorded_result("CCC(=O)N1C[C@H](C)[C@H](OC)CN(C)C(=O)c2ccc(NC(=O)Nc3ccc(Cl)cc3)cc2OC[C@H]1C")
4.13
>>> recorded_result("CO[C@@H]1CN(C)C(=O)c2cc(NC(=O)Nc3cccc(Cl)c3)ccc2OC[C@@H](C)N(C)C[C@@H]1C")
-1.87
>>> recorded_result("C[C@@H]1CN([C@H](C)CO)C(=O)c2cc(-c3ccncc3)cnc2O[C@H]1CN(C)C")
2.47
>>> recorded_result("O=S(=O)(NCC[C@H]1CC[C@@H](NS(=O)(=O)c2cccc(Cl)c2)[C@@H](CO)O1)c1cccc(F)c1")
8.34
>>> recorded_result("Cc1ccc2nc(N3C(=O)C(O)=C(C(=O)c4ccco4)C3c3cccc(O)c3)sc2c1 (configuration not stated)")
43.5
>>> recorded_result("Cc1ccc(-n2ncc3c(Nc4cccc(C(=O)O)c4)ncnc32)cc1")
57.1
>>> recorded_result("C[C@H]1CCCCO[C@@H](CN(C)Cc2ccncc2)[C@@H](C)CN([C@@H](C)CO)C(=O)c2cc(NC(=O)Nc3ccc(F)cc3)ccc2O1")
-1.97
>>> recorded_result("C[C@@H]1CN([C@@H](C)CO)S(=O)(=O)c2ccc(/C=C/c3ccccc3)cc2O[C@@H]1CN(C)C(=O)Nc1cc(F)ccc1F")
2
>>> recorded_result("O=C(C[C@H]1CC[C@H](NC(=O)c2ccncc2)[C@H](CO)O1)Nc1ccccc1")
6.5

---

- measurement description: Bmi1 luciferase reporter increase in mESCs, primary screen, esBAF inhibitor project, mouse ES cells, Bmi1 luciferase knock-in, single point (AID 602393);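 note: 0% = median of the plate's neutral control wells and 100% = double that signal; a rise in the Bmi1 reporter signal indicates esBAF inhibition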
- cond: 24 h, at 12.5 µM, stronger effect = higher value, 100% = twice the neutral-well signal
The whole screen tested about 350,000 compounds, of which about 7,000 (2%) were called active. The entries come from a sample that favours actives as a whole.
observation type: reporter increase (%)

>>> recorded_result("CCn1c(Cc2cccs2)nnc1SCC(=O)c1ccc(C)cc1")
25.1
>>> recorded_result("O=C(O)c1cc([N+](=O)[O-])c(Nc2cccc3ccccc23)c([N+](=O)[O-])c1")
15.6
>>> recorded_result("O=C(Nc1ccccc1C(=O)Nc1ccncc1)c1ccc([N+](=O)[O-])cc1")
-2.66
>>> recorded_result("O=C(NCCOc1ccccc1)c1ccccc1F")
-7.45
>>> recorded_result("COCC(=O)Nc1ccc2c(c1)C(=O)N(C)C[C@H](OC)[C@@H](C)CN(CC1CC1)[C@@H](C)CO2")
-0.99
>>> recorded_result("Cc1cccc(C)c1NC(=O)COC(=O)c1ccccc1O")
0.59
>>> recorded_result("O=C(NCCc1ccccc1)c1cccc(NC(=O)c2ccccc2)c1")
42.6
>>> recorded_result("O=C(NCc1ccccc1Cl)C1CCCO1 (stereo not drawn)")
-4.1
>>> recorded_result("CC(C)Sc1ncnc2c1cnn2-c1ccccc1")
19
>>> recorded_result("COc1ccccc1OCCCC(=O)Nc1ccc2c(c1)OCCO2")
4.46
>>> recorded_result("CCC(=O)Nc1ccc2c(c1)C(=O)N(C)C[C@H](OC)[C@H](C)CN(C(=O)C1CCC1)[C@@H](C)CO2")
-5.69
>>> recorded_result("CS(=O)(=O)Nc1cccc(C2=NN(S(=O)(=O)c3ccccc3)C(c3cccs3)C2)c1 (stereo not drawn)")
-7.36
>>> recorded_result("O=C(COC(=O)c1ccc(F)cc1)NCCCc1ccccc1")
-1.61
>>> recorded_result("C[C@H](CO)N1C[C@H](C)[C@H](CN(C)C(=O)Nc2ccc(C(F)(F)F)cc2)Oc2ccc(NS(=O)(=O)c3ccccc3)cc2CC1=O")
-4.41
>>> recorded_result("Cn1c(=O)n(C)c2cc(C(=O)Nc3ccc(Br)cc3)ccc21")
6.69
>>> recorded_result("CS(=O)(=O)Nc1cccc(C2=NN(C(=O)c3cccc(F)c3)C(c3cccs3)C2)c1 (stereo not drawn)")
5.14
>>> recorded_result("CC(C)CC#Cc1cnc2c(c1)C(=O)N([C@H](C)CO)C[C@H](C)[C@@H](CN(C)Cc1ccccc1C(=O)O)O2")
-5.98
>>> recorded_result("CC(C)c1ccc(C(=O)NCCCc2ccccc2)cc1")
55.1
>>> recorded_result("Cc1nn(C(C)C(=O)NCCC2=CCCCC2)c(=O)c2nn(-c3ccccc3)c(C)c12 (stereo not drawn)")
21
>>> recorded_result("CSc1ncc(C(=O)NCCCc2ccccc2)c(C)n1")
5.19
>>> recorded_result("Cc1cc(=O)c2ccc(NC(=O)c3ccccc3)cc2[nH]1")
1.23
>>> recorded_result("COc1ccc(NC(=O)N[C@H]2CC[C@@H](CCNS(=O)(=O)c3cccc(Cl)c3)O[C@H]2CO)cc1")
1.55
>>> recorded_result("O=C(NCc1ccccc1)c1cccc(NC(=O)C2CCCCC2)c1")
-4.78
>>> recorded_result("CCOC(=O)c1[nH]c(C)c(C(=O)OCC(=O)N2c3ccccc3CC2C)c1C (stereo not drawn)")
-0.495
>>> recorded_result("CCn1c(SCC(=O)N(C)C2CCS(=O)(=O)C2)nnc1-c1cccs1 (stereo not drawn)")
-1.83
>>> recorded_result("CCn1c(SCC(=O)c2ccc(Cl)s2)nnc1-c1cccs1")
46
>>> recorded_result("CCn1c(Cc2ccccc2)nnc1SCc1nc2ccccc2c(=O)[nH]1")
-5.17
>>> recorded_result("Cc1noc(C)c1S(=O)(=O)Nc1ccc2c(c1)C(=O)N([C@H](C)CO)C[C@@H](C)[C@@H](CN(C)C(=O)C1CCCCC1)OCCCC[C@@H](C)O2")
5.24
>>> recorded_result("Cc1cccc(N(CC(=O)N2CCOCC2)S(C)(=O)=O)c1")
0.817
>>> recorded_result("CO[C@H]1CN(C)C(=O)c2cc(NC(=O)NC(C)C)ccc2OC[C@H](C)N(C(=O)CN(C)C)C[C@H]1C")
-0.455
>>> recorded_result("Clc1ccccc1SCc1nc2ccccc2[nH]1")
53
>>> recorded_result("O=C(C[C@H]1CC[C@H](NC(=O)Nc2ccccc2F)[C@@H](CO)O1)NCc1ccccc1")
0.158
>>> recorded_result("O=C(Nc1ccc(C(=O)NCc2ccccc2Cl)cc1)C1=CSCCO1")
44
>>> recorded_result("CCc1cccc(C)c1NC(=O)COC(=O)CC1CCCC1")
2.51
>>> recorded_result("CC(C)CC#Cc1cnc2c(c1)C(=O)N([C@@H](C)CO)C[C@@H](C)[C@@H](CN(C)S(=O)(=O)c1cccs1)O2")
-1.12
>>> recorded_result("CCN(CC)S(=O)(=O)c1ccc2nc(CSc3nnnn3-c3ccc(O)cc3)[nH]c2c1")
1.1
>>> recorded_result("CCOc1cccc2cc(C(=O)OCC(=O)Nc3c(C)cccc3CC)c(=O)oc12")
50.3
>>> recorded_result("CO[C@H]1CN(C)C(=O)c2ccc(NC(=O)c3cnccn3)cc2OC[C@@H](C)N(C(C)=O)C[C@H]1C")
-1.77
